Test: MRT in male Wistar rat at 10 mg/kg, po measured up to 24 hrs by HPLC analysis
Assay type: ADME, organism-based
Settings: in vivo
PROPERTY_LABEL: MRT (h)
Write it as a number; the unit h goes unstated.

input: # get_value(readout='MRT', item= Clc1ccc(-c2nnc(CN3CCN(C(c4ccccc4)c4ccc(Cl)cc4)CC3)o2)cc1 (stereo unspecified) )
output: 3.42

====

Recorded measurements of IC50, one per entry
Biological target: Prostaglandin G/H synthase 1 (Ovis aries, UniProt P05979)
Sequence (P05979 whole entry): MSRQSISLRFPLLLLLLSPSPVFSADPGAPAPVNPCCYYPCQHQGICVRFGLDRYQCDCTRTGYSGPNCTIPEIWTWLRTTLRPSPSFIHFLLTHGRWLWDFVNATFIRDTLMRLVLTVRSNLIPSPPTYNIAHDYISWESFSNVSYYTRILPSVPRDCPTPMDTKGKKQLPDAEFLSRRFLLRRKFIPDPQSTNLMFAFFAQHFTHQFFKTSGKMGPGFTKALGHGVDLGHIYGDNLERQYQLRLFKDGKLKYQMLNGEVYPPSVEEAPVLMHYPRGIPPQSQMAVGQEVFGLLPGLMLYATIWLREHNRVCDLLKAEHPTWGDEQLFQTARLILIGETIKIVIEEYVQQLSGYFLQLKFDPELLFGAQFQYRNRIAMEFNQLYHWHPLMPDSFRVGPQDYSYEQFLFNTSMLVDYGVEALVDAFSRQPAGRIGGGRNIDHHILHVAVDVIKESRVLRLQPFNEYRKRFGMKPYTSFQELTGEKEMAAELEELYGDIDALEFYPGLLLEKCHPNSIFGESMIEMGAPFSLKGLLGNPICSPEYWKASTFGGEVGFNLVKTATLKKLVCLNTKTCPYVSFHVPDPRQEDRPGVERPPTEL
Assay: Inhibition of ovine COX-1 using arachidonic acid as substrate in presence of hemin by TMPD reagent-based colorimetry
Write it as a number; the unit µM goes unstated.

input: # get_value(readout='IC50', item= Fc1ccc(-c2nnc(CN3CCN(C(c4ccccc4)c4ccc(Cl)cc4)CC3)o2)cc1 (centres undefined) )
output: 34.2

input: # get_value(readout='IC50', item= O=[N+]([O-])c1cc(-c2nnc(CN3CCN(C(c4ccccc4)c4ccc(Cl)cc4)CC3)o2)ccc1Cl (centres undefined) )
output: 38.5

input: # get_value(readout='IC50', item= Clc1ccc(C(c2ccccc2)N2CCN(Cc3nnc(-c4cccc(Cl)c4)o3)CC2)cc1 (centres undefined) )
output: 32

input: # get_value(readout='IC50', item= Clc1ccc(C(c2ccccc2)N2CCN(Cc3nnc(-c4ccc(Cl)cc4Cl)o3)CC2)cc1 (centres undefined) )
output: 30.3

input: # get_value(readout='IC50', item= Oc1ccc(-c2nnc(CN3CCN(C(c4ccccc4)c4ccc(Cl)cc4)CC3)o2)cc1 (centres undefined) )
output: 36.3
